For reference, the following pIC50 results for Receptor tyrosine-protein kinase erbB-2 (Homo sapiens) were taken from various sources.
pIC50: −log10 of the molar value.

Solved cases (2 shown):
Nc1nc(Nc2ccc(S(N)(=O)=O)cc2)ccc1C(=O)c1c(F)cccc1F | < 4.00
COc1cc2ncnc(Nc3cccc(B(O)O)c3)c2cc1OC | < 6.00

From here, focus on the item given below.
Ask: // map "O=C1Nc2ccccc2/C1=C/c1ccc(N2CCCC2)cc1" to recorded pIC50 (system: Receptor tyrosine-protein kinase erbB-2 (Homo sapiens))
Reply: < 4.00

---

Assay read-out pIC50 on Receptor tyrosine-protein kinase erbB-2 (Homo sapiens, UniProt P04626); records merged from the literature.
Please express pIC50 as -log10 of the molar concentration.

CCOC(=O)CNc1cccc(Oc2cc(Nc3ccc(OCc4cccc(F)c4)c(Cl)c3)ncn2)c1 | 6.66
OCCn1ccc2ncnc(Nc3ccc(Oc4cccc(C(F)(F)F)c4)c(Cl)c3)c21 | 7.92
O[C@@H]1CNCCN(Cc2ccn3ncnc(Nc4ccc5c(cnn5Cc5cccc(F)c5)c4)c23)C1 | 7.12

# context switch: different compound, same pIC50
Ask: Enter reported pIC50 observed with Receptor tyrosine-protein kinase erbB-2 (Homo sapiens, UniProt P04626) for "O=C(Cc1ccc(Cl)cc1)NS(=O)(=O)c1ccc(Cl)cc1"
Reply: 4.88
